The measurements presented in this section are drawn from patent US8198273B2.

Reported IC50 values follow for various compounds
Molecular target: CYP2C19 (Homo sapiens)
Experiment: CYP2C19 inhibition (fluorescent substrate)
Type: in vitro ADME
Conditions: CYP2C19, CEC substrate; read-out: Cyp IC50 2C19
Protocol: CYP (Cytochrome P450) enzymes are the major drug metabolizing enzymes present in the liver. The inhibition of CYP enzyme activity (IC50) for each of CYP1A2, CYP2C19, CYP2C9, CYP2D6, CYP3A4(BFC) and CYP3A4(BQ) is determined for compounds, where inhibition of metabolism of a known substrate leads to a decrease in the fluorescence of the metabolized product. The fluorescence of the product is monitored as a function of compound concentration. […]

Below, each entry is followed by its recorded IC50 result.
* CCCS(=O)(=O)Nc1cccc(C(=O)c2c[nH]c3ncc(-c4cnc(N(C)C)nc4)cc23)c1F [P-2408] | > 10 µM
* COc1ccnc2[nH]cc(C(=O)c3c(F)ccc(NS(=O)(=O)c4cccnc4)c3F)c12 [P-2073] | > 10 µM
* COc1ccnc2[nH]cc(C(=O)c3c(F)ccc(NS(=O)(=O)c4c(F)cccc4F)c3F)c12 [P-2031] | > 10 µM

Tell me its IC50 given CCCS(=O)(=O)Nc1ccc(F)c(C(=O)c2c[nH]c3ncc(-c4ccc(S(=O)(=O)NC5CC5)cc4)cc23)c1F [P-2168] as the entry.
5 to 10 µM

Read the entry CCCS(=O)(=O)Nc1ccc(F)c(C(=O)c2c[nH]c3ncc(-c4ccc(SC)nc4)cc23)c1F [P-2187] and write its reported IC50.
> 10 µM

Give a short answer stating reported IC50 for CCCS(=O)(=O)Nc1ccc(F)c(C(=O)c2c[nH]c3ncc(-c4ccc(OCCCN5CCCC5)nc4)cc23)c1F [P-2235] .
< 5 µM

Identify IC50 associated with the compound CCCS(=O)(=O)Nc1ccc(F)c(C(=O)c2c[nH]c3ncc(-c4cncc(S(C)(=O)=O)c4)cc23)c1F [P-2188]
> 10 µM

====

molecular target: B-Raf V600E (Homo sapiens, UniProt P15056, V600E); assay: B-Raf V600E biochemical kinase inhibition (AlphaScreen, biotin-MEK1 substrate); conditions: 100 μM ATP
Sequence (P15056 whole entry V600E): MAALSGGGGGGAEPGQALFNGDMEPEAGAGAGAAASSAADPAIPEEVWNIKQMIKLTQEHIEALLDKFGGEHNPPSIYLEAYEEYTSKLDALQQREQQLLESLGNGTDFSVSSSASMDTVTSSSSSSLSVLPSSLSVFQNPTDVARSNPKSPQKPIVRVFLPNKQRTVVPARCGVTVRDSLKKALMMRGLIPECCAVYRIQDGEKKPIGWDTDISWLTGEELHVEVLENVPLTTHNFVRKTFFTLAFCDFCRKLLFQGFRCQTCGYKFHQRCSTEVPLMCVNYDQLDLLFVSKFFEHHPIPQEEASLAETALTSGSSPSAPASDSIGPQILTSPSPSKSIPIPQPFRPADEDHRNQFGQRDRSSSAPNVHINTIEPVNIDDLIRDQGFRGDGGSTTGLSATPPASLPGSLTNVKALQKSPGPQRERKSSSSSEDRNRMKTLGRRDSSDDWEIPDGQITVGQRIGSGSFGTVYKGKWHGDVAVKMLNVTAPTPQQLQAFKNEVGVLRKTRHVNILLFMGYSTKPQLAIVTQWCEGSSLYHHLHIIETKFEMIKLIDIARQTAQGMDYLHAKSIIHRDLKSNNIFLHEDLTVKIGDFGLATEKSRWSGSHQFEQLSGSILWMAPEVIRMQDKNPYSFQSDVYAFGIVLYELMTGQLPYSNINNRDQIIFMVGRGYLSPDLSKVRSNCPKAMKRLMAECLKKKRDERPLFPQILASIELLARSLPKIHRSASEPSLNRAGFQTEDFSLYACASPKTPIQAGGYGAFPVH
pIC50: −log10 of the molar value.
Property name: pIC50

Recorded pIC50, per entry:
* CCCS(=O)(=O)Nc1ccc(F)c(C(=O)c2c[nH]c3ncc(-c4cn[nH]c4)cc23)c1F | > 8.00
* CCCS(=O)(=O)Nc1ccc(F)c(C(=O)c2c[nH]c3ncc(-c4ccc(C(N)=O)nc4)cc23)c1F | > 7.00
* CCCS(=O)(=O)Nc1ccc(F)c(C(=O)c2c[nH]c3ncc(-c4ccc(Cl)nc4)cc23)c1F | > 7.00

# ---- query compound ----
Recall and state the measured pIC50 for "CCCS(=O)(=O)Nc1ccc(F)c(C(=O)c2c[nH]c3ncc(-c4ccc(S(=O)(=O)NC)cc4)cc23)c1F" .
> 8.00

====

Reported values: pIC50 for c-Raf-1 (Homo sapiens, UniProt P04049), one per item.
pIC50: −log10 of the molar value.

• CCCc1ccc(-c2cnc3[nH]cc(C(=O)c4c(F)ccc(NS(=O)(=O)CCC)c4F)c3c2)cn1 = > 8.00
• CCCS(=O)(=O)Nc1ccc(F)c(C(=O)c2c[nH]c3ncc(-c4ccc(OCCN5CCOCC5)nc4)cc23)c1F = > 8.00
• CCCS(=O)(=O)Nc1ccc(F)c(C(=O)c2c[nH]c3ncc(-c4ccc(N5CCCC5)nc4)cc23)c1F = > 7.00
• CCCS(=O)(=O)Nc1ccc(F)c(C(=O)c2c[nH]c3ncc(-c4ccc(NS(C)(=O)=O)cc4)cc23)c1F = > 8.00
• CCCS(=O)(=O)Nc1ccc(F)c(C(=O)c2c[nH]c3ncc(-c4ccc(S(N)(=O)=O)cc4)cc23)c1F = > 8.00
• CCCS(=O)(=O)Nc1ccc(F)c(C(=O)c2c[nH]c3ncc(-c4ccc(OCCCN(C)C)nc4)cc23)c1F = > 8.00

The record that follows has no pIC50 shown yet.
Supply pIC50 value. Item: "Cc1cnc2[nH]cc(C(=O)c3c(F)ccc(NS(=O)(=O)c4cc(F)ccc4F)c3F)c2c1"
> 8.00

====

molecular target: CYP2C9 (Homo sapiens, UniProt P11712); experiment: CYP2C9 inhibition (fluorescent substrate); type: in vitro ADME; settings: CYP2C9, MFC substrate; read-out: Cyp IC50 2C9
Sequence (P11712 whole entry): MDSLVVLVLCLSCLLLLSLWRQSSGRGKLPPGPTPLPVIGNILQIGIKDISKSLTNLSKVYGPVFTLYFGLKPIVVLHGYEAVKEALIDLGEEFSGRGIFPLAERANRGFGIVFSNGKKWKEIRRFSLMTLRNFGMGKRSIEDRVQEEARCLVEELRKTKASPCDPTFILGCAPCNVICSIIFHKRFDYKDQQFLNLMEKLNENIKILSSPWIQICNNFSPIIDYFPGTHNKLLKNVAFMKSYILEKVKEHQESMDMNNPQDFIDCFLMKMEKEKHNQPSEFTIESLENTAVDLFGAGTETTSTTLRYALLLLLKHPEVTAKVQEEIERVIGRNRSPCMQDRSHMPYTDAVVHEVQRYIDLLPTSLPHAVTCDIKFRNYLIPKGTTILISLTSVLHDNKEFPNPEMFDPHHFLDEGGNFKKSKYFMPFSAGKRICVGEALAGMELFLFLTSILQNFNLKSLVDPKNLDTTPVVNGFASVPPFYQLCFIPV
pIC50: −log10 of the molar value.
Property name: pIC50

• O=C(c1c(F)ccc(NS(=O)(=O)c2cccc(F)c2)c1F)c1c[nH]c2nccc(Cl)c12 = < 5.00
• CCCS(=O)(=O)Nc1ccc(F)c(C(=O)c2c[nH]c3ncc(-c4ccc(OCCCN5CCOCC5)nc4)cc23)c1F = > 5.30

# return recorded pIC50 for entry "CCCS(=O)(=O)Nc1ccc(F)c(C(=O)c2c[nH]c3ncc(-c4ccc(S(=O)(=O)NC5CC5)cc4)cc23)c1F"
> 5.30

Given "N#Cc1cnc2[nH]cc(C(=O)c3c(F)ccc(NS(=O)(=O)c4cccnc4)c3F)c2c1" , respond with its pIC50.
< 5.00

Answer with reported pIC50 of "CCCS(=O)(=O)Nc1ccc(F)c(C(=O)c2c[nH]c3ncc(-c4ccc(S(=O)(=O)NC)cc4)cc23)c1F"
5.00 to 5.30

Name the recorded pIC50 of the compound listed here: "N#Cc1ccnc2[nH]cc(C(=O)c3c(F)ccc(NS(=O)(=O)c4cccc(F)c4)c3F)c12"
< 5.00

Specify reported pIC50 for the compound shown: "COc1cnc2[nH]cc(C(=O)c3c(F)ccc(NS(=O)(=O)c4cc(F)ccc4F)c3F)c2c1"
< 5.00

Output pIC50 of "O=C(c1c(F)ccc(NS(=O)(=O)c2cc(F)ccc2F)c1F)c1c[nH]c2ncc(Cl)cc12"
5.00 to 5.30

====

Below, each entry is listed alongside its reported pIC50.
target: CYP2C19 (Homo sapiens); assay: CYP2C19 inhibition (fluorescent substrate); type: in vitro ADME; details: CYP2C19, CEC substrate; read-out: Cyp IC50 2C19
pIC50: −log10 of the molar value.

Below are worked cases with known answers.
• CCCS(=O)(=O)Nc1ccc(F)c(C(=O)c2c[nH]c3ncc(-c4ccnc(F)c4)cc23)c1F = < 5.00
• N#Cc1cnc2[nH]cc(C(=O)c3cccc(NS(=O)(=O)c4cccc(F)c4)c3F)c2c1 = < 5.00

Give reported pIC50 value for "N#Cc1cnc2[nH]cc(C(=O)c3c(F)ccc(NS(=O)(=O)c4c(F)cccc4F)c3F)c2c1"
< 5.00

Annotate the molecule "COc1cnc2[nH]cc(C(=O)c3c(F)ccc(NS(=O)(=O)c4ccccc4F)c3F)c2c1" with its measured pIC50.
< 5.00

Note pIC50 for the molecule shown: "N#Cc1ccnc2[nH]cc(C(=O)c3c(F)ccc(NS(=O)(=O)c4cc(F)ccc4F)c3F)c12"
< 5.00

Check the records and state pIC50 for "Cc1cnc2[nH]cc(C(=O)c3c(F)ccc(NS(=O)(=O)c4cccnc4)c3F)c2c1"
< 5.00

Assign pIC50 to the following record: "C#Cc1cnc2[nH]cc(C(=O)c3c(F)ccc(NS(=O)(=O)CCC)c3F)c2c1"
5.00 to 5.30

Look up and state reported pIC50 for "N#Cc1cnc2[nH]cc(C(=O)c3cccc(NS(=O)(=O)c4ccccc4F)c3F)c2c1"
< 5.00

====

# pIC50 per entry
molecular target: CYP2C19 (Homo sapiens, UniProt P33261); experiment: CYP2C19 inhibition (fluorescent substrate); assay type: in vitro ADME; conditions: CYP2C19, CEC substrate; read-out: Cyp IC50 2C19
Sequence (P33261 whole entry): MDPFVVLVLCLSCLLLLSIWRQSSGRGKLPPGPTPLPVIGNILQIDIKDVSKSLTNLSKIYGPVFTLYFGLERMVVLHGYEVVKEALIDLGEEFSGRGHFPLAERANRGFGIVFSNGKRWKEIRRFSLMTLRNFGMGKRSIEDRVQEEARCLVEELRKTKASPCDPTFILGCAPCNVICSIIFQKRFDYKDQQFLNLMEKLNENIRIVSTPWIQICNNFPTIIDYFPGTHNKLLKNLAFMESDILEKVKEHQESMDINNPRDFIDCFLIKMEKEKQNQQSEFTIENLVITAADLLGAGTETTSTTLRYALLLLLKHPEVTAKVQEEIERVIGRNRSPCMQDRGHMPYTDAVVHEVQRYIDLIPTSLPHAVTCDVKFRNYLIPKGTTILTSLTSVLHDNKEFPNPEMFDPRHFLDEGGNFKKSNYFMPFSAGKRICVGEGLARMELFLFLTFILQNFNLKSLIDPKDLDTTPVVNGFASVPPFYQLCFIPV
pIC50: −log10 of the molar value.

Example molecules with recorded pIC50:
- Cc1cnc2[nH]cc(C(=O)c3c(F)ccc(NS(=O)(=O)c4cc(F)ccc4F)c3F)c2c1 [P-2015]: 5.00 to 5.30
- N#Cc1cnc2[nH]cc(C(=O)c3c(F)ccc(NS(=O)(=O)c4ccccc4F)c3F)c2c1 [P-2011]: < 5.00
- CCCS(=O)(=O)Nc1ccc(F)c(C(=O)c2c[nH]c3ncc(-c4ccc(OCCN5CCOCC5)nc4)cc23)c1F [P-2232]: < 5.00

Field: next molecule
State, in one line, measured pIC50 of Cc1cnc2[nH]cc(C(=O)c3c(F)ccc(NS(=O)(=O)c4cccc(F)c4)c3F)c2c1 [P-2016]
< 5.00

====

biological target: CYP2C9 (Homo sapiens); experiment: CYP2C9 inhibition (fluorescent substrate); assay type: in vitro ADME; settings: CYP2C9, MFC substrate; read-out: Cyp IC50 2C9
Property name: IC50

Example compounds with recorded IC50:
• CCCS(=O)(=O)Nc1ccc(F)c(C(=O)c2c[nH]c3ncc(-c4ccc(OCCCN(C)C)nc4)cc23)c1F = 5 to 10 µM
• N#Cc1cnc2[nH]cc(C(=O)c3cccc(NS(=O)(=O)c4ccccc4F)c3F)c2c1 = 5 to 10 µM

Retrieve IC50 measured for "CCCS(=O)(=O)Nc1ccc(F)c(C(=O)c2c[nH]c3ncc(-c4ccc(F)nc4)cc23)c1F" and print it.
> 10 µM

Supply recorded IC50 for "CCCS(=O)(=O)Nc1ccc(F)c(C(=O)c2c[nH]c3ncc(-c4ccc(OCCCN5CCCC5)nc4)cc23)c1F" here.
> 10 µM
